assay readout: melting point

- Cl.N=C(N)NC(=N)SCc1ccc(F)cc1F [Compound 10b]: 144 to 146 °C
- Cl.N=C(N)NC(=N)SCc1ccc2ccccc2c1 [Compound 11a]: 175 to 177 °C
- Cl.N=C(N)NC(=N)SCc1ccc(F)cc1Cl [Compound 10a]: 154 to 156 °C
- Cl.N=C(N)NC(=N)SCc1ccc2ccccc2c1Br [Compound 11b]: 160 to 162 °C
- Cl.N=C(N)NC(=N)SCc1ccc(Cl)cc1Cl [Compound 10c]: 139 to 142 °C
- Cl.N=C(N)NC(=N)SCc1ccc(Cl)cc1[N+](=O)[O-] [Compound 10d]: 183 to 185 °C

All figures here come from patent US20100184851A1.
